test: in vitro; details: dog
Observable: CC50 at 24 h

Below, 10 compounds whose answers are already recorded.
[
  {
    "Compound": "COc1cccc(/C=N/NC(=O)c2ccccc2O)c1O",
    "CC50 at 24 h": "> 200 µM"
  },
  {
    "Compound": "O=C(N/N=C/c1cc(O)c(O)c(O)c1)c1cc(O)c(O)c(O)c1",
    "CC50 at 24 h": "> 200 µM"
  },
  {
    "Compound": "O=C(N/N=C/c1cc(O)ccc1O)c1cc(O)c(O)c(O)c1",
    "CC50 at 24 h": "≥ 172 µM"
  },
  {
    "Compound": "O=C(O)c1ccc(-c2cccc(/C=N/NC(=O)c3cc(O)c(O)c(O)c3)c2)cc1",
    "CC50 at 24 h": "> 200 µM"
  },
  {
    "Compound": "COc1ccc(O)c(/C=N/NC(=O)c2cc(O)c(O)c(O)c2)c1",
    "CC50 at 24 h": "> 200 µM"
  },
  {
    "Compound": "CCCCCCCC(=O)N/N=C/c1cccc(O)c1O",
    "CC50 at 24 h": "> 200 µM"
  },
  {
    "Compound": "COc1cccc(/C=N/NC(=O)c2cc(O)c(O)c(O)c2)c1O",
    "CC50 at 24 h": "> 200 µM"
  },
  {
    "Compound": "NNC(=O)c1cc(O)c(O)c(O)c1 [Compound 28, 3,4,5-trihydroxybenzohydrazide]",
    "CC50 at 24 h": "> 200 µM"
  },
  {
    "Compound": "O=C(N/N=C/c1ccc(O)c(O)c1O)c1cc(O)c(O)c(O)c1",
    "CC50 at 24 h": "> 200 µM"
  },
  {
    "Compound": "O=C(N/N=C/c1ccc(O)cc1O)c1cc(O)c(O)c(O)c1",
    "CC50 at 24 h": "> 200 µM"
  }
]

(Q) CC50 at 24 h for O=C(N/N=C/c1ccc[nH]1)c1cc(O)c(O)c(O)c1 ?
(A) > 200 µM

(Q) CC50 at 24 h for O=C(N/N=C/c1ccccn1)c1cc(O)c(O)c(O)c1 ?
(A) > 200 µM

(Q) CC50 at 24 h for O=C(N/N=C/c1ccccc1O)c1cc(O)c(O)c(O)c1 ?
(A) > 200 µM

(Q) CC50 at 24 h for O=C(N/N=C/c1cc(O)c(O)cc1O)c1ccccc1O ?
(A) > 200 µM

(Q) CC50 at 24 h for O=C(N/N=C/c1cccc(O)c1O)c1ccccc1 ?
(A) ≥ 146 µM
